Subject Of Test: UniProt:P9WIA1
Sequence (whole entry): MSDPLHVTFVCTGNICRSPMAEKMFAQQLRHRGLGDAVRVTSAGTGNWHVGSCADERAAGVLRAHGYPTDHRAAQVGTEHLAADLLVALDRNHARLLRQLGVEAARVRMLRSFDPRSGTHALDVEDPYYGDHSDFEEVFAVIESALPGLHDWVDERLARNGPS
Test Description: Inhibition of Mycobacterium tuberculosis recombinant protein tyrosine phosphatase assessed as enzyme activity at 25 uM
Design: scale not given: the % may be the effect or the level left
Mark met for Activity under 90%, not met if at or over.

Examples from the recorded data:
[[record]]
compound = "COc1ccc(C(=O)/C=C/c2ccc3c(c2)OCO3)cc1OC"
group_label = "not met"

[[record]]
compound = "COc1cc(OC)c(C(=O)/C=C/c2ccc3ccccc3c2)c(OC)c1"
group_label = "not met"

[[record]]
compound = "COc1ccc(OC)c(C(=O)/C=C/c2cccc3ccccc23)c1"
group_label = "met"

[[record]]
compound = "O=C(/C=C/c1ccc2c(c1)OCO2)c1ccc(Br)cc1"
group_label = "met"

[[record]]
compound = "COc1cc(C(=O)/C=C/c2ccc3ccccc3c2)cc(OC)c1OC"
group_label = "not met"

[[record]]
compound = "O=C(/C=C/c1ccc2c(c1)OCO2)c1cccc([N+](=O)[O-])c1"
group_label = "met"

[[record]]
compound = "COc1ccc(C(=O)/C=C/c2ccc3c(c2)OCO3)cc1"
group_label = "not met"

[[record]]
compound = "COC1C=C(C(=O)/C=C/c2ccc3ccccc3c2)C=CC1O (stereo not drawn)"
group_label = "met"


Q: Does this compound meet the criterion Activity < 90%? `COc1cc(C(=O)/C=C/c2cccc3ccccc23)cc(OC)c1OC`
Result: not met

Q: Likewise for `COc1cc(C(=O)/C=C/c2ccc3c(c2)OCO3)ccc1O` ?
Result: met

Q: Likewise for `COc1cc(O)c(C(=O)/C=C/c2cccc(Cl)c2)c(OC)c1` ?
Result: met

Q: Likewise for `COc1ccc(OC)c(C(=O)/C=C/c2ccc3ccccc3c2)c1` ?
Result: met

Q: Likewise for `COc1cc(C(=O)/C=C/c2ccc3c(c2)OCO3)cc(OC)c1OC` ?
Result: met

Q: Likewise for `COc1cc(OC)c(C(=O)/C=C/c2cccc([N+](=O)[O-])c2)c(OC)c1` ?
Result: not met
